- assayOverview: Inhibition of [20-3H]phorbol 12,13-dibutyrate binding to protein kinase C
readoutName: pKi
Scale: negative log10 of molar concentration, which is what pKi denotes.

// sample CCC/C=C/C=C\C(=O)O[C@@H]1[C@@H](C)[C@]2(O)[C@@H]3C=C(C)C(=O)[C@@H]3CC(CO)=C[C@H]2[C@@H]2C(C)(C)[C@]12OC(C)=O , its pKi was 6.21
